# test target: HDM2 (Homo sapiens)
# Construct: Thioredoxin (N); made in house; host or cells: E. coli BL21(DE3)Rosetta (pET32a)
# Sequence (Q00987 17-125): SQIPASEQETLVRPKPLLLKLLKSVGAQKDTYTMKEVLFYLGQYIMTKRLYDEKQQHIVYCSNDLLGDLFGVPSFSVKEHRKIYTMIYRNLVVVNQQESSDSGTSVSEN
# assay procedure: HDM2 FRET assay (inhibition of p53 peptide binding to HDM2)
# test settings: Table 2; truncated HDM2 residues 17 to 125, 0.5 nM HDM2, 3 nM FITC labeled 8-mer peptide, two hour incubation
quantity: IC50 (nM)
Answers are plain numbers, in nM.

// solved cases for IC50 follow
- smiles entry: "C[C@H]1CC[C@H](Cn2cnc3nc(-c4noc(=O)[nH]4)nc(-c4cc(Cl)cnc4O)c32)CC1"
  IC50, nM: 87.6
- smiles entry: "C[C@H]1CC[C@H](Cn2cnc3nc(-c4noc(=O)[nH]4)nc(-c4ccnc(Cl)c4F)c32)CC1"
  IC50, nM: 134
- smiles entry: "C[C@H]1CC[C@H](Cn2cnc3nc(-c4noc(=O)[nH]4)nc(-c4cc(Cl)cc(C(F)(F)F)c4)c32)CC1"
  IC50, nM: 172
- smiles entry: "CNC(=O)c1cc(Cl)cc(-c2nc(-c3noc(=O)[nH]3)nc3ncn(C[C@H]4CC[C@H](C)CC4)c23)c1"
  IC50, nM: 71.8

// input: 2 compounds below; output: IC50 for each
1. C[C@H]1CC[C@H](Cn2cnc3nc(-c4noc(=O)[nH]4)nc(-c4cc(Cl)cc(C#N)c4)c32)CC1
2. C[C@H]1CC[C@H](Cn2cnc3nc(-c4noc(=O)[nH]4)nc(-c4cccc(Br)c4)c32)CC1

Response:
1: 413; 2: 157

// input: 3 compounds below; output: IC50 for each
1. C[C@H]1CC[C@H](Cn2cnc3nc(-c4noc(=O)[nH]4)nc(-c4cc(O)cc(Cl)c4)c32)CC1
2. COCCOc1cc(Cl)cc(-c2nc(-c3noc(=O)[nH]3)nc3ncn(C[C@H]4CC[C@H](C)CC4)c23)c1
3. CS(=O)(=O)c1cc(Cl)cc(-c2nc(-c3noc(=O)[nH]3)nc3ncn(C[C@H]4CC[C@H](C)CC4)c23)c1

Response:
1. 111
2. 68.5
3. 250
